- System: 935938-334-R-J1-PDC spheroids with HUVEC/MSC, viability;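 also: compound exposure lasted seven days before viability was read; percent of vehicle DMSO treated spheroid viability so 100% = untreated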
- method: Anticancer human tumor 935938-334-R-J1-PDC patient-derived small intestine adenocarcinoma cell line growth inhibition [PI3K]
- conditionDetails: second compound 0.1 µM; first compound 0.1 µM; hits give low values
reportedProperty: viability, T/C (%)
Numbers only, in %.

[[record]]
compound = "Cn1ncc(Cl)c1-c1cc(C(=O)NC(CN)Cc2cccc(F)c2)sc1Cl (configuration not stated) + COc1c(OCCCN2CCOCC2)ccc2c3n(c(=NC(=O)c4cnc(N)nc4)nc12)CCN3"
reportedproperty = "viability, T/C"
endpointunit = "%"
reported = 43

[[record]]
compound = "CC1(C)CCC(CN2CCN(c3ccc(C(=O)NS(=O)(=O)c4ccc(NCC5CCOCC5)c([N+](=O)[O-])c4)c(Oc4cnc5[nH]ccc5c4)c3)CC2)=C(c2ccc(Cl)cc2)C1 + Cc1nc(NC(=O)N2CCCC2C(N)=O)sc1-c1ccnc(C(C)(C)C(F)(F)F)c1"
reportedproperty = "viability, T/C"
endpointunit = "%"
reported = 97.5

[[record]]
compound = "CCN1CCN(Cc2ccc(Nc3ncc(F)c(-c4cc(F)c5nc(C)n(C(C)C)c5c4)n3)nc2)CC1 + Cc1nc(NC(=O)N2CCCC2C(N)=O)sc1-c1ccnc(C(C)(C)C(F)(F)F)c1"
reportedproperty = "viability, T/C"
endpointunit = "%"
reported = 45.6

[[record]]
compound = "C=CC(=O)N1CCN(c2nc(=O)n(-c3c(C)ccnc3C(C)C)c3nc(-c4c(O)cccc4F)c(F)cc23)C(C)C1 (configuration not stated) + CC(Nc1ncnc2nc[nH]c12)c1cc2cccc(Cl)c2c(=O)n1-c1ccccc1"
reportedproperty = "viability, T/C"
endpointunit = "%"
reported = 123


Quick one: give me viability, T/C for each item below, same order please.
1. Cn1ncnc1[C@H]1c2n[nH]c(=O)c3cc(F)cc(c23)N[C@@H]1c1ccc(F)cc1 + COc1c(OCCCN2CCOCC2)ccc2c3n(c(=NC(=O)c4cnc(N)nc4)nc12)CCN3
2. C#Cc1c(F)ccc2cc(O)cc(-c3ncc4c(N5CC6CCC(C5)N6)nc(OCC56CCCN5CC(F)C6)nc4c3F)c12 (configuration not stated) + Cc1nc(NC(=O)N2CCCC2C(N)=O)sc1-c1ccnc(C(C)(C)C(F)(F)F)c1
3. Cn1nccc1Nc1nccc(-c2ccn(C(CO)c3ccc(Cl)c(F)c3)c(=O)c2)n1 (configuration not stated) + COc1c(OCCCN2CCOCC2)ccc2c3n(c(=NC(=O)c4cnc(N)nc4)nc12)CCN3

50.2
73.6
39.6
